# measuredTarget: KDR (Homo sapiens, UniProt P35968)
# Sequence (P35968 20-1356): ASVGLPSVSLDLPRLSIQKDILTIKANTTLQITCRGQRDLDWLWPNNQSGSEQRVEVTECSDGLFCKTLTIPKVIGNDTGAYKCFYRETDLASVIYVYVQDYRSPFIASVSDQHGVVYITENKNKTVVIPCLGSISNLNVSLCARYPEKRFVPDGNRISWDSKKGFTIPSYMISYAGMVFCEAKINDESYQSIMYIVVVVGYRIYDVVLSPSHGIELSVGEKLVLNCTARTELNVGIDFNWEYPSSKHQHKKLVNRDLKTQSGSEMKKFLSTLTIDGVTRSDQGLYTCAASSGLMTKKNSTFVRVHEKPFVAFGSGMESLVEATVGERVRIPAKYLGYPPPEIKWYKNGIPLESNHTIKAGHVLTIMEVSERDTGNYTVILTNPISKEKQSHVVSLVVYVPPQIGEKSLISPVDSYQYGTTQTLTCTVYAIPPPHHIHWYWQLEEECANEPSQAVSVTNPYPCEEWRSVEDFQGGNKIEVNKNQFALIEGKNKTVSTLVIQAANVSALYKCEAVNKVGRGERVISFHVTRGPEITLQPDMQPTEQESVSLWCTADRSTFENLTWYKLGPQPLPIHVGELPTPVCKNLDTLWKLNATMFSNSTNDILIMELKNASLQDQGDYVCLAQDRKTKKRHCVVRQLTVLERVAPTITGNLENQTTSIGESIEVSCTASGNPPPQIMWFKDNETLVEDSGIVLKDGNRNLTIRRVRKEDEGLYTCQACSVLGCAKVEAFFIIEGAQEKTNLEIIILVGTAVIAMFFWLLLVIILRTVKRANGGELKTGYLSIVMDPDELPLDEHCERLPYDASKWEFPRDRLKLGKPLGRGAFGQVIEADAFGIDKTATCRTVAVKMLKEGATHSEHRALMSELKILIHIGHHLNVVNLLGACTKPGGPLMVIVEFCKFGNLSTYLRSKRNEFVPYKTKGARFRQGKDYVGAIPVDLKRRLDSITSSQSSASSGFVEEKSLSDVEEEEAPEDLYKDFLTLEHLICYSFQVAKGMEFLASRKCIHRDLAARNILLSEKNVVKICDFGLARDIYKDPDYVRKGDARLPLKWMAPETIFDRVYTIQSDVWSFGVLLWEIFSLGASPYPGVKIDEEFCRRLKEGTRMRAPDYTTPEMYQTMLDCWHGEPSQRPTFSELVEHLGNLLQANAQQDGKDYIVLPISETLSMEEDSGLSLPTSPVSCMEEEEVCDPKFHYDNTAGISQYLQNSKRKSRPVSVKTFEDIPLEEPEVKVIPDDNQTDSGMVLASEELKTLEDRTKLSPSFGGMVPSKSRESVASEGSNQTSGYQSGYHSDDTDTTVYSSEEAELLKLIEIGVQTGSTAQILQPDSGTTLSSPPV
# procedureDetails: cell-based
# setupConditions: read-out: % Inhibition of KDR kinase autophosphorylation in KDR15 cells, compound conc. 1000 nM
readout: inhibition at 1 µM (%)

COc1cc2ncnc(NC3=CC(=O)C(c4ccccc4)=CC3=O)c2cc1OC	20

1: COc1cc2ncnc(NC3=CC(=O)C(Cl)=CC3=O)c2cc1OC
2: COCCOc1cc2ncnc(NC3=CC(=O)C(Oc4ccc5c(c4)Cc4ccccc4-5)=CC3=O)c2cc1OC
3: COc1cc2ncnc(NC3=CC(=O)C(N(C)C)=CC3=O)c2cc1OC
Query: Rank descending by inhibition at 1 µM. The reply should contain the labels ordered as requested.
Response: 2, 3, 1
(2: 79%, 3: 32%, 1: 18%)

----------
Form field: melting point (one value per entry).

Here are 4 molecules together with their reported answers.
COCCOc1cc2ncnc(NC3=CC(=O)C(Oc4ccc(-n5ccnc5)cc4)=CC3=O)c2cc1OCCOC [Example 341]	109 to 115 °C
COc1cc2ncnc(NC3=CC(=O)C(N4CCOCC4)=CC3=O)c2cc1OC [Example 84]	249 to 250 °C
COc1cc2ncnc(NC3=CC(=O)C(Oc4ccccc4)=CC3=O)c2cc1OC [Example 95]	228 to 234 °C
COCCOc1cc2ncnc(NC3=CC(=O)C(N(C)c4ccc(OC)cc4)=CC3=O)c2cc1OC [Example 78]	197 to 198 °C

Looking up COCCOc1cc2ncnc(NC3=CC(=O)C(Oc4cccnc4)=CC3=O)c2cc1OC [Example 91] , I see its melting point listed as 189 to 190 °C

Looking up COc1cc2ncnc(NC3=CC(=O)C(N(C)C)=CC3=O)c2cc1OC [Example 88] , I see its melting point listed as 245 to 250 °C

----------
# measuredTarget: human KDR (VEGF-receptor-2) (Homo sapiens)
# Construct: beginning at Met-806; (5′-ATG GAT CCA GAT GM CTC CCA TTG) and ending at Val-1356; made in house
# Sequence (P35968 806-1356): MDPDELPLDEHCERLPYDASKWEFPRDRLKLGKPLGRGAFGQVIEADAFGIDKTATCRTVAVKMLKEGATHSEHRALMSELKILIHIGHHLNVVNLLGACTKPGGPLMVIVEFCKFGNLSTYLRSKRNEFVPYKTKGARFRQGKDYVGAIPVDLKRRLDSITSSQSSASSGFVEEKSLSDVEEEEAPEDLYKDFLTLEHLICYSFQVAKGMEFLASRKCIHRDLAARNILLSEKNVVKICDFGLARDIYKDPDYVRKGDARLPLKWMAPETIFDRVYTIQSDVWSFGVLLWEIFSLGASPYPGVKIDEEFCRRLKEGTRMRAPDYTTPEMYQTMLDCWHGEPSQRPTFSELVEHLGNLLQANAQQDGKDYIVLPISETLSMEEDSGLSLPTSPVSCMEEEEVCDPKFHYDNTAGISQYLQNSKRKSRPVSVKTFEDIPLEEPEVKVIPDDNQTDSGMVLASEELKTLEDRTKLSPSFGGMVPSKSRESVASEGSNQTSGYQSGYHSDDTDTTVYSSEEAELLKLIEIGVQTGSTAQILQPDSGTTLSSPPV
# procedureDetails: KDR kinase enzyme assay (DELFIA, KDR-IC-Flag, poly(Glu4-Tyr) peptide)
# Assay type: biochemical
# setupConditions: Concentration 1000 nM; ATP conc. 10 μM; read-out: % Inhibition
readout: inhibition at 1 µM (%)

COc1cc2ncnc(NC3=CC(=O)C(Oc4ccc(Cl)cc4)=CC3=O)c2cc1OC	94
COCCOc1cc2ncnc(NC3=CC(=O)C(Oc4ccc5cc(Br)ccc5c4)=CC3=O)c2cc1OC	93
COCCOc1cc2ncnc(NC3=CC(=O)C4(C)OC4C3=O)c2cc1OC (stereo not shown)	69
COCCOc1cc2ncnc(NC3=CC(=O)C(Oc4cccc(C(F)(F)F)c4)=CC3=O)c2cc1OC	89

----------
# Tested on: Human umbilical vein endothelial cells (HUVEC)
# procedureDetails: HUVEC proliferation assay, VEGF-dependent growth ([3H]-thymidine incorporation)
# Assay type: cell-based
# setupConditions: Homo sapiens, HUVEC, conc. 10000 nM
readout: inhibition at 10 µM (%)
Report the value in % with no unit label.

Here are 3 compounds together with their reported answers.
COCCOc1cc2ncnc(NC3=CC(=O)C(Oc4ccc(-n5ccnc5)cc4)=CC3=O)c2cc1OC	89
COCCOc1cc2ncnc(NC3=CC(=O)C(OC)=CC3=O)c2cc1OC	88
COCCOc1cc2ncnc(NC3=CC(=O)C(Oc4ccccc4C)=CC3=O)c2cc1OC	95

Looking up COCCOc1cc2ncnc(NC3=CC(=O)C(N(C)c4ccccc4)=CC3=O)c2cc1OC , I see its inhibition at 10 µM listed as 96
